Measured values drawn from ChEMBL document CHEMBL4011643 for this set.

The compounds listed here are annotated with their viability at 24 h, 25 µM.
# assay_protocol: Cytotoxicity against human HeLa cells assessed as cell viability at 25 uM after 24 hrs by MTT assay
# Format: cell-based
# experimental_setup: read-out: Activity

{"smiles": "Cc1nc2ccc(C(=O)Nc3cccc(-c4ccc(-n5c(C)nc6cc(C(=O)NCCCN7CCN(C)CC7)ccc65)nc4)c3)cc2[nH]1", "viability at 24 h, 25 µM": "> 98%"}
{"smiles": "Cc1nc2ccc(C(=O)Nc3cccc(-c4ccc(-n5c(C)nc6cc(C(=O)NCCCN(C)C)ccc65)nc4)c3)cc2[nH]1", "viability at 24 h, 25 µM": "> 98%"}
{"smiles": "Cc1nc2cc(C(=O)NCCCN(C)C)ccc2n1-c1ccc(-c2cccc(NC(=O)c3ccc4nc(CCCN(C)C)[nH]c4c3)c2)cn1", "viability at 24 h, 25 µM": "39%"}
{"smiles": "Cc1nc2ccc(C(=O)Nc3cccc(-c4ccc(-n5c(C)nc6cc(C(=O)NCCN(C)C)ccc65)nc4)c3)cc2[nH]1", "viability at 24 h, 25 µM": "> 98%"}
{"smiles": "Cc1nc2ccc(-c3cccc(-c4ccc(-n5c(C)nc6cc(C(=O)NCCCN(C)C)ccc65)nc4)c3)cc2[nH]1", "viability at 24 h, 25 µM": "62%"}
{"smiles": "Cc1nc2ccc(C(=O)Nc3cccc(-c4ccc(-n5c(C)nc6cc(C(=O)NCCCCN(C)C)ccc65)nc4)c3)cc2[nH]1", "viability at 24 h, 25 µM": "> 98%"}

* * *

# Test system: Acinetobacter baumannii
# assay_protocol: Antibacterial activity against Acinetobacter baumannii ATCC 17978 after 20 hrs by broth microdilution method
# Type: functional
# experimental_setup: ATCC 17978, 20 h

{"smiles": "Cc1nc2ccc(C(=O)Nc3cccc(-c4ccc(-n5c(C)nc6cc(C(=O)NCCCN7CCN(C)CC7)ccc65)nc4)c3)cc2[nH]1", "study_target": "Acinetobacter baumannii", "MIC": "> 32 µg/mL"}
{"smiles": "Cc1nc2ccc(C(=O)Nc3cccc(-c4ccc(-n5c(C)nc6cc(C(=O)NCCCCN(C)C)ccc65)nc4)c3)cc2[nH]1", "study_target": "Acinetobacter baumannii", "MIC": "> 32 µg/mL"}
{"smiles": "Cc1nc2ccc(C(=O)Nc3cccc(-c4ccc(-n5c(C)nc6cc(C(=O)NCCCN(C)C)ccc65)nc4)c3)cc2[nH]1", "study_target": "Acinetobacter baumannii", "MIC": "16 µg/mL"}
{"smiles": "Cc1nc2ccc(C(=O)Nc3cccc(-c4ccc(-n5c(C)nc6cc(C(=O)NCCN(C)C)ccc65)nc4)c3)cc2[nH]1", "study_target": "Acinetobacter baumannii", "MIC": "> 32 µg/mL"}

* * *

The molecules listed here are annotated with their MIC.
# System: Acinetobacter baumannii
# assay_protocol: Antibacterial activity against Acinetobacter baumannii ATCC 17978 after 20 hrs in the presence of Pa-beta-N and magnesium ions by broth microdilution method
# Assay type: functional
# experimental_setup: ATCC 17978, 20 h
observation_type: MIC

{"smiles": "Cc1nc2ccc(C(=O)Nc3cccc(-c4ccc(-n5c(C)nc6cc(C(=O)NCCCCN(C)C)ccc65)nc4)c3)cc2[nH]1", "observation_type": "MIC", "reading": "8 µg/mL"}
{"smiles": "Cc1nc2ccc(C(=O)Nc3cccc(-c4ccc(-n5c(C)nc6cc(C(=O)NCCCN7CCN(C)CC7)ccc65)nc4)c3)cc2[nH]1", "observation_type": "MIC", "reading": "> 32 µg/mL"}
{"smiles": "Cc1nc2ccc(C(=O)Nc3cccc(-c4ccc(-n5c(C)nc6cc(C(=O)NCCCN(C)C)ccc65)nc4)c3)cc2[nH]1", "observation_type": "MIC", "reading": "8 µg/mL"}
{"smiles": "Cc1nc2ccc(C(=O)Nc3cccc(-c4ccc(-n5c(C)nc6cc(C(=O)NCCN(C)C)ccc65)nc4)c3)cc2[nH]1", "observation_type": "MIC", "reading": "32 µg/mL"}
